target: human NTCP (Homo sapiens); assay: Screening taurocholate uptake assay (96-well, [14C]taurocholate, 10 µM drug); conditions: screen, 10 µM drug, taurocholate uptake
Sequence (Q14973 whole entry): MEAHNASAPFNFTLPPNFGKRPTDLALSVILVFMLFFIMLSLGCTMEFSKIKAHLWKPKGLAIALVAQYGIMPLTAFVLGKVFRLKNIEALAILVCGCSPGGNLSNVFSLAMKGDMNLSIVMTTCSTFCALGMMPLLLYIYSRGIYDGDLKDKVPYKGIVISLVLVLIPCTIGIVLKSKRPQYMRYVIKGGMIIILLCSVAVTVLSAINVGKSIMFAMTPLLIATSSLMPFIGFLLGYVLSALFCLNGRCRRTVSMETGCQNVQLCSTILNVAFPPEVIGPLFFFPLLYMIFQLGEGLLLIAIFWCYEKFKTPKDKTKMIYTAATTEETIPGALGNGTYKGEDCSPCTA
Where a name gives a salt, the structure may show the parent alone.
measure: B-score functional assay
Write the number on its own, no unit after it.

[
  {
    "molecule": "CCCC[N+]1(C)[C@@H]2C[C@@H](OC(=O)[C@H](CO)c3ccccc3)C[C@H]1[C@@H]1O[C@@H]12.[Br-] (some centres unmarked) [Butylscopolammonium (n-) bromide]",
    "B-score functional assay": -0.739
  },
  {
    "molecule": "CNC(C)CCC=C(C)C.CNC(C)CCC=C(C)C.O=C(O)[C@@H](O)[C@H](O)[C@H](O)[C@@H](O)C(=O)O [Isometheptene mucate]",
    "B-score functional assay": -0.726
  },
  {
    "molecule": "O=C(O)CCC(=O)c1ccc(-c2ccccc2)cc1",
    "B-score functional assay": -1.216
  }
]

Prompt line: Name the value of B-score functional assay reported for CN1CCC(=C2c3ccccc3CC(=O)c3sccc32)CC1 [Ketotifen fumarate] when tested on human NTCP (Homo sapiens).
Response line: 0.006
